target_or_system: ItypOR49 (Ips typographus)
Construct: full-length, N-terminal V5 tag, codon-optimized gene; with ItypOrco
Sequence (A0A7L8XYT4 entry or part of it): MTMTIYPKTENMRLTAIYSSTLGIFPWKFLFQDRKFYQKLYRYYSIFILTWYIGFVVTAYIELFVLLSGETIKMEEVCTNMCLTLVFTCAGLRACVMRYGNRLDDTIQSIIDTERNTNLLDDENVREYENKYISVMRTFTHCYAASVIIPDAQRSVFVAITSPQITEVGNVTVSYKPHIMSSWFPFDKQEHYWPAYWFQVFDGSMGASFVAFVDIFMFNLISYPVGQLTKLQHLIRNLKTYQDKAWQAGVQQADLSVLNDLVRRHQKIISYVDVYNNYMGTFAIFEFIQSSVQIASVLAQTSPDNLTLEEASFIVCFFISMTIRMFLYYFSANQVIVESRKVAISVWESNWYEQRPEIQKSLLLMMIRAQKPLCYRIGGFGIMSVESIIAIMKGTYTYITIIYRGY
Sequence (A0A7L8XYY7 entry or part of it, further chain): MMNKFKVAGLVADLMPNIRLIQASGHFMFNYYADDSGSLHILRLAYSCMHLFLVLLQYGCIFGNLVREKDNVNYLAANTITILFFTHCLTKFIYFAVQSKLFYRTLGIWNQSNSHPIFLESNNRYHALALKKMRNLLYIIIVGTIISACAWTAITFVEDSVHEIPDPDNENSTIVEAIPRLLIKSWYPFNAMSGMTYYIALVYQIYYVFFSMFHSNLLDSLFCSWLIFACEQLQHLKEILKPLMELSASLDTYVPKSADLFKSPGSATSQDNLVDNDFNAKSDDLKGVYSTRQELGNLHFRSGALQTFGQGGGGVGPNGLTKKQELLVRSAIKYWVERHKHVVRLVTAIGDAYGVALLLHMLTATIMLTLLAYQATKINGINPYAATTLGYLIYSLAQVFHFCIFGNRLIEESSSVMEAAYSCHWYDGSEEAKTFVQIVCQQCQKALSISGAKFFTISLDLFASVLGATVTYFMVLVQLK
test_name: calcium fluorescence (Fluo-4AM) assay, inducible stable HEK293 cells
measured_endpoint: pEC50
Please treat pEC50 as minus the base-10 logarithm of the molar concentration.

## Input Supply pEC50 value. Item: C=CC(=C)C[C@@H](O)C=C(C)C [(R)-(−)-ipsdienol]
## Output 5.15

----------
target_or_system: ItypOR25 (Ips typographus, UniProt A0A8F3ERC7)
Construct: full-length, N-terminal V5 tag, codon-optimized gene; with ItypOrco
Sequence (A0A8F3ERC7 1-394): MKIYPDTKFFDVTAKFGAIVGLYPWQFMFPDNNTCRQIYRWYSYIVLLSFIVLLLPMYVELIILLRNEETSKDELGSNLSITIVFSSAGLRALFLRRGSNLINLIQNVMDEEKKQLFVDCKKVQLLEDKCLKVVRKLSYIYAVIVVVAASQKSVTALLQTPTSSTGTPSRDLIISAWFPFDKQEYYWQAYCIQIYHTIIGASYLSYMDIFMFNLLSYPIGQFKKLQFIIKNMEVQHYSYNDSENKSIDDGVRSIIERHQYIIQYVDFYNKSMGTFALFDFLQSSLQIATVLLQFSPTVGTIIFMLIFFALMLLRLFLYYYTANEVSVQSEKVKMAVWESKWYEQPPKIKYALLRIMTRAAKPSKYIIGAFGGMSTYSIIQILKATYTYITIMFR
Sequence (A0A7L8XYY7 1-480 partner): as the sequence (A0A7L8XYY7 entry or part of it, further chain) above
test_name: calcium fluorescence (Fluo-4AM) assay, inducible stable HEK293 cells
pEC50: −log10 of the molar value.
measured_endpoint: pEC50

## Input Supply pEC50 value. Item: CC1=CC[C@@H]2[C@H](C1)C2(C)C [(+)-3-carene]
## Output ~4.61
